From: ChEMBL document CHEMBL1201862

Test system: 786-0
Assay: NCI tumour cell line growth inhibition, 48 h
The source made the active and inactive calls. Cut-off read from the data, not from the text of the source: active = GI50 up to about 1.1 µM and inactive = higher. Numbered stars: 1 amine (or outer) side, 2 acyl side, 3 side chain; on linkers, the order of the positions; unused ones are H or OH. Square brackets hold non-standard residues; d marks the D form. Peptide text beside a SMILES is read from it. * marks the point of attachment. X30 = CC(=O)N(C)SCC(N[*:1])C(=O)[*:2]; Cbz = O=C(OCc1ccccc1)*; Bn = c1ccc(C*)cc1
Possible outcomes: active, inactive

| compound | label |
| --- | --- |
| COC(=O)CCC(=O)CC(=O)C(=O)Nc1c(Cl)cc([N+](=O)[O-])cc1Cl | inactive |
| C[N+](C)(CCCn1ccnc1[N+](=O)[O-])CCCn1ccnc1[N+](=O)[O-] | inactive |
| COc1nc2c(c(O)c(C)c(=O)n2OC2OCC(OC(C)=O)C(OC(C)=O)C2OC(C)=O)c(=O)n1C (stereo unspecified) | inactive |
| CCN(CC)CCOc1ccccc1/C=C/c1noc2ccccc12 | inactive |
| O=C1OC(c2ccc(O)c(Cl)c2)(c2ccc(O)c(Cl)c2)c2ccc(Br)c3cccc1c23.O=C1OC(c2ccc(O)c(Cl)c2)(c2ccc(O)c(Cl)c2)c2cccc3c(Br)ccc1c23 | inactive |
| Cc1nc(N)sc1/N=N/c1ccccc1Br | inactive |
| c1ccc2c(c1)nc1n2CSCC1 | inactive |
| CC(C)=C[C@@H]1C[C@H](C)c2c(O)cc(C)c3c2C1=C(C)C(=O)C3=O | inactive |
| C[C@]12CCNC(=O)C=C1CC[C@@H]1C2CC[C@@]2(C)C1CC[C@@H]2OC(=O)COc1ccc(N(CCCl)CCCl)cc1 (stereo partly specified) | active |
| COC1(C)C(=O)N2C1N(C(=O)OC(C)(C)C)CC2(C)C (stereo unspecified) | inactive |
| C[Si](C)(c1ccccc1)C1CC(=O)CC(=O)C1 | inactive |
| COC(=O)C1=C(OC)[C@H]2C#C/C=C\C#C[C@@H]3Nc4c(cc(O)c5c4C(=O)c4ccccc4C5=O)[C@]24O[C@@]34[C@H]1C | active |
| COc1nc2c(c(=O)[nH]1)N=C(c1ccc([N+](=O)[O-])cc1)CC(c1ccccc1)N2 (stereo unspecified) | inactive |
| C=CCc1cc(-c2cc(CC=C)c(O)c(CNC)c2)cc(CNC)c1O | inactive |
| O=C(CSCC(=O)N/N=C/c1ccc(F)cc1)N/N=C/c1ccc(F)cc1 | inactive |
| Clc1ncnc(Cl)c1Cl | inactive |
| CCCCCCCCCCCCCCCCCCNC(=S)NC=C1C(=O)c2ccccc2C1=O | inactive |
| CCCC(O)c1cn(-c2cccc(S(=O)(=O)O)c2)nn1 (stereo unspecified) | inactive |
| CN(C)CCNc1ccc(NCC[N+](C)(C)Cc2ccc([N+](=O)[O-])cc2)c2c1C(=O)c1c(O)ccc(O)c1C2=O | inactive |
| c1ccc2c(c1)CCN2CCN1CCc2ccccc21 | inactive |
| CC(=O)N(C)SCC(NC(=O)C(Cc1ccccc1)NC(=O)OCc1ccccc1)C(=O)NC(Cc1ccccc1)C(=O)NC(Cc1c[nH]c2ccccc12)C(=O)NC(CCCCNC(=O)OCc1ccccc1)C(=O)NC(C(=O)NC(CSN(C)C(C)=O)C(=O)NC(C(N)=O)C(C)OCc1ccccc1)C(C)OCc1ccccc1 (stereo unspecified) (Cbz-F[X30]FWK(Cbz)T(Bn)[X30]T(Bn)-NH2; configuration not given here) | inactive |
| CCOC(=O)C(C)c1nc2cc(F)c(F)cc2[nH]c1=O (stereo unspecified) | inactive |
| CCOC(=O)/C(=N\Nc1ccc(-n2c(C)nc3ccc(Br)cc3c2=O)cc1)C(C)=O | inactive |
| COc1ccc(C[C@@H]2Cc3cc(OC)c(OC)cc3CN2C)cc1 | inactive |
| COc1ccc2c(c1)c1c3c(ccc4ncn2c43)N(CCO)CCN=1 | active |
| C#CC1(O)CCC2[C@@H]3CCc4cc(Oc5nc(F)nc(-c6c(C)c(C(=O)OCC)n7ccccc67)n5)ccc4C3CC[C@@]21C (stereo partly specified) | inactive |

----------
System: HOP-62
Experiment: NCI tumour cell line growth inhibition, 48 h
Calls of active or inactive are those of the source. Rule as the data show it: active = GI50 up to about 1.1 µM and inactive = higher.
valueKind: GI50

| compound | assayResult |
| --- | --- |
| CCOC(=O)C(C)c1nc2cc(F)c(F)cc2[nH]c1=O (centres undefined) | > 100 µM (inactive) |
| COC(=O)C(=O)C(C(=O)C(=O)Nc1ccccc1C(C)=O)c1nc2ccc(C(=O)c3ccccc3)cc2nc1O (centres undefined) | 45.2 µM (inactive) |
| Clc1ccc(C2ON=C(c3ccccc3)N2C23CC4CC(CC(C4)C2)C3)c(Cl)c1 (centres undefined) | > 10 µM (inactive) |
| CN(C)Cc1c(O)ccc2c1c1c(n2C)C(=O)c2ccccc2C1=O | 15.1 µM (inactive) |
| COC(=O)/C(C#N)=C(/NCCN)Nc1ccccc1 | > 100 µM (inactive) |
| COc1cc(OC)c(C2CC=Cc3c(OC)cc(OC)c(OC)c32)cc1OC (centres undefined) | > 100 µM (inactive) |
| N#Cc1c(Cl)cccc1Oc1ccc(S(=O)(=O)/N=C(\NN)Nc2ccc(Cl)cc2)cc1 | 21.1 µM (inactive) |
| c1ccc2c(c1)Sc1nccc3ccnc-2c13 | 35.8 µM (inactive) |
| COC(=O)[C@]1(c2cc3ccccc3[nH]2)CC2CNC1C1OC(C)(C)OC21 (some centres undefined) | > 100 µM (inactive) |

----------
We begin with a simple list: items and their reported GI50.
Tested on: SW-620
Assay: NCI tumour cell line growth inhibition, 48 h
Calls of active or inactive are those of the source. Rule as the data show it: active = GI50 up to about 1.1 µM and inactive = higher.

| molecule | GI50 |
| --- | --- |
| COc1cc2ccn3c4cc(OC)c(OC)cc4cc3c2cc1OC | > 100 µM (inactive) |
| N#CCC(=O)N1CCCCCCC1 | 5.87 µM (inactive) |
| C=C[C@@]1(C)CC2(C=C(CO)C(O)O2)Oc2c1c(=O)oc1cccc(C)c21 (stereo not given in full) | 1.55 µM (inactive) |
| NC(=O)CC(Nc1ncc2c(n1)-c1ccccc1OC2)C(=O)O (stereo not given) | > 100 µM (inactive) |
| COc1ccc(C(O)CNC(=O)c2ccccc2)cc1 (stereo not given) | > 100 µM (inactive) |

----------
This listing pairs compounds with measured GI50.
System: SR
Assay: NCI tumour cell line growth inhibition, 48 h
Activity calls are given as the source filed them. No stated cut-off is given here; in the data, active = GI50 up to about 1.1 µM and inactive = higher.
valueKind: GI50

| compound | assayResult |
| --- | --- |
| ClCCc1ccccc1CC1=NCCc2ccccc21 | > 100 µM (inactive) |
| CC1CC[C@]2(C(=O)O)CCC3(C)C(=C2[C@H]1C)C=CC1[C@@]2(C)CC[C@H](O)C(C)(C)C2CC[C@]13C (stereo not given in full) | 12.4 µM (inactive) |
| O=C1c2cccc(O)c2C(=O)c2c(OC3OC(CO)C(O)C(O)C3O)cccc21 (stereo not given) | 32.4 µM (inactive) |
| COc1ccc(C(O)CNC(=O)c2ccccc2)cc1 (stereo not given) | > 100 µM (inactive) |
| COC(=O)c1ccc(OCCn2nnc(C(=O)NN)c2C(=O)NN)cc1 | > 100 µM (inactive) |

----------
Tested on: NCI-H522
Test: NCI tumour cell line growth inhibition, 48 h
The source made the active and inactive calls. Cut-off read from the data, not from the text of the source: active = GI50 up to about 1.1 µM and inactive = higher.

| compound | assayTarget | GI50 |
| --- | --- | --- |
| COc1nc2c(c(O)c(C)c(=O)n2OC2OCC(OC(C)=O)C(OC(C)=O)C2OC(C)=O)c(=O)n1C (stereo not drawn) | NCI-H522 | 91.8 µM (inactive) |
| c1ccc2c(c1)CCN2CCN1CCc2ccccc21 | NCI-H522 | > 10 µM (inactive) |
| CCc1c2c([nH]c(=S)c1C#N)CCC2 | NCI-H522 | > 100 µM (inactive) |

----------
Tested on: UACC-62
Assay: NCI tumour cell line growth inhibition, 48 h
Activity calls are given as the source filed them. Cut-off read from the data, not from the text of the source: active = GI50 up to about 1.1 µM and inactive = higher.

| compound | GI50 |
| --- | --- |
| Cc1ccc2c3c1O[C@H]1c4[nH]c5ccccc5c4C[C@@]4(O)[C@@H](C2)N(CC2CC2)CC[C@]314 | 16 µM (inactive) |
| O=C1/C(=C/C=C/c2ccccc2)N=C(c2ccccc2)N1c1ccc(S(=O)(=O)Nc2nccs2)cc1 | 18.2 µM (inactive) |
| N#CC(C#N)=CNC(=S)Nc1ccc(S(=O)(=O)Nc2nccs2)cc1 | > 100 µM (inactive) |
| COc1ccc(/C=N/N=C(\N)NO)cc1O | 31.1 µM (inactive) |
| NC(=O)C(=O)n1ncc(Cl)c(Cl)c1=O | 31.5 µM (inactive) |
| Cc1cc2nc(C#N)c(N3CCN(c4ccc([N+](=O)[O-])cc4)CC3)nc2cc1C | > 79.1 µM (inactive) |
| N#Cc1c(-c2ccc([N+](=O)[O-])cc2)cc(-c2ccc(Nc3ccnc4cc(Cl)ccc34)cc2)[nH]c1=O | > 100 µM (inactive) |
| NC(=O)c1cc2ccccc2c(/N=N/c2ccccc2)c1O | > 100 µM (inactive) |
| CC(=O)N(CCCCNC(=O)C(F)(F)F)CCCNC(=O)C(F)(F)F | > 100 µM (inactive) |
| COc1cc(OC)c(C2CC=Cc3c(OC)cc(OC)c(OC)c32)cc1OC (configuration not stated) | > 100 µM (inactive) |
| CCCC(S(=O)(=O)c1ccccc1)S(=O)(=O)c1ccccc1 | > 100 µM (inactive) |
| CN(C)/C=N/S(=O)(=O)c1nn2c(C=O)c(-c3ccccc3)nc2s1 | 18.2 µM (inactive) |
| COC(=O)C(C(=O)C(=O)Nc1ccc(C(F)(F)F)cc1[N+](=O)[O-])c1csc(-n2nc(-c3ccccc3)cc2-c2ccccc2)n1 (configuration not stated) | > 100 µM (inactive) |
| CC(C)/C(Cl)=N/OC(=O)Nc1cccc(C(F)(F)F)c1 | 13.6 µM (inactive) |
| O=C1c2cccnc2S(=O)(=O)N1c1ccc(Br)cc1 | > 100 µM (inactive) |
| c1ccc2c(c1)nc1n2CSCC1 | > 100 µM (inactive) |
| O=S(=O)(c1ccc(I)cc1)N(c1ccccc1)S(=O)(=O)C(F)(F)C(F)(F)C(F)(F)C(F)(F)F | 25.5 µM (inactive) |
